B1: LINE1-full (parent)
chain: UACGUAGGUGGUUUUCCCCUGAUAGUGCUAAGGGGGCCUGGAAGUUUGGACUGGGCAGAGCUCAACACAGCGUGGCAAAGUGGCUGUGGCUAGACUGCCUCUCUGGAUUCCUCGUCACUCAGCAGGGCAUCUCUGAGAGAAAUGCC

# Variants of: B1
# method_summary: self-cleavage, relative activity (ratio to wild type); higher = more cleavage; in vitro, sequencing; the parent is a self-cleaving ribozyme
observed_property: self-cleavage

- variant_designation: "U26G C38U"
  val: 0.91
- variant_designation: "A94G A138C"
  val: 0.22
- variant_designation: "A42G U45G"
  val: 0.1
- variant_designation: "A78U U119A"
  val: 1.82
- variant_designation: "U112A A117G"
  val: 1.82
- variant_designation: "C63U U109A"
  val: 0.12
- variant_designation: "C19U U108C"
  val: 1.26
- variant_designation: "U73C U134C"
  val: 1.87
- variant_designation: "U15A G48C"
  val: 0.71
- variant_designation: "G55A A140G"
  val: 0.17
- variant_designation: "U26C A42G"
  val: 1.06
- variant_designation: "G25U A78G"
  val: 0.96
- variant_designation: "U62A A64G"
  val: 0.05
- variant_designation: "A42G A57U"
  val: 0.14
- variant_designation: "U62A U96A"
  val: 0.04
- variant_designation: "G27A A142G"
  val: 1.15
- variant_designation: "A65U A67G"
  val: 0.15
- variant_designation: "A22G C90U"
  val: 0.04
- variant_designation: "A77U G114A"
  val: 1.65
- variant_designation: "C3A C98A"
  val: 0.28
- variant_designation: "A57G C98U"
  val: 0.19
- variant_designation: "U104A A129C"
  val: 1.61
- variant_designation: "C101A A107G"
  val: 1.57
- variant_designation: "A64U A94U"
  val: 0.26
- variant_designation: "U39A U85G"
  val: 0.28
- variant_designation: "A69U A138U"
  val: 0.09
- variant_designation: "C123U G125C"
  val: 1.1
- variant_designation: "U13C U115C"
  val: 1.53
- variant_designation: "U87C C120U"
  val: 0.13
- variant_designation: "U23C U102A"
  val: 1.28
- variant_designation: "C18U U81C"
  val: 0.84
- variant_designation: "C110A"
  val: 1.35
- variant_designation: "A50U U143C"
  val: 1.16
- variant_designation: "U14C U46C"
  val: 1.3
- variant_designation: "U52A A79U"
  val: 2.26
- variant_designation: "U81A U132A"
  val: 1.7
- variant_designation: "A2G C76U"
  val: 1.17
- variant_designation: "G44C A117U"
  val: 1.53
- variant_designation: "G33A A136G"
  val: 1.35
- variant_designation: "A24G A65C"
  val: 0.16
- variant_designation: "U14A U23C"
  val: 1.44
- variant_designation: "U47G A65C"
  val: 0
